Every entry's value here was drawn from patent US20020051982A1.

The following molecules are listed with their measured susceptibility (E-test strip) values.
# Test system: WY100
# protocol_description: E-test susceptibility on LB agar, strain WY100
# Assay type: cell-based, E. coli
# Set-up: unit not given here
Respond numerically, and do not add a unit to the figure.

Please review the following examples before continuing.
C[C@@H](O)[C@H]1C(=O)N2C(C(=O)O)=C(SCCN=CN)C[C@H]12 [Imipene, imipenem]    0.25
CC1(C)S[C@@H]2[C@H](NC(=O)[C@H](N)c3ccccc3)C(=O)N2[C@H]1C(=O)O [Ampicillin]    3
CO/N=C(\C(=O)N[C@@H]1C(=O)N2C(C(=O)O)=C(CSc3nc(=O)c(=O)[nH]n3C)CS[C@H]12)c1csc(N)n1 [Ceftriaxone]    0.125

Q: // query susceptibility (E-test strip) value for entry CO[C@@]1(NC(=O)Cc2cccs2)C(=O)N2C(C(=O)O)=C(COC(N)=O)CS[C@@H]21 [Cefoxitin]
A: 3

Q: Need susceptibility (E-test strip), item CO/N=C(\C(=O)N[C@@H]1C(=O)N2C(C(=O)[O-])=C(C[N+]3(C)CCCC3)CS[C@H]12)c1csc(N)n1 [Cefepime]
A: 0.047

Q: Entry CCN1CCN(C(=O)N[C@@H](C(=O)N[C@@H]2C(=O)N3[C@@H]2SC(C)(C)[C@@H]3C(=O)O)c2ccccc2)C(=O)C1=O [Pipericillin] has what susceptibility (E-test strip)?
A: 1.5
